tested on: Mus musculus; assay: Anticonvulsant activity in Mus musculus (mouse) assessed as protection against maximal-electric shock-induced seizures at 30 to 300 mg/kg, ip measured at 0.5 hr; type: functional, organism-based
Active and inactive are the calls of the source. The rule behind the calls is not given here.
ENDPOINT LABEL: Activity

Solved entries:
O=C(N/N=C/c1cccc(O)c1)Nc1ccccc1Cl = inactive
C/C(=N\NC(=O)Nc1ccccc1Cl)c1ccc(C)cc1 = inactive
Cc1ccc(NC(=O)NN=C2CCCCC2)cc1 = inactive
O=C(N/N=C/c1ccc(O)cc1)Nc1ccccc1Cl = inactive
Cc1ccc(NC(=O)N/N=C/c2ccccc2Cl)cc1 = inactive
O=C(N/N=C/c1ccc(Cl)cc1)Nc1ccccc1Cl = inactive

Tell me measured Activity for `COc1cc(/C=N/NC(=O)Nc2ccc(C)cc2)ccc1O` please. inactive

---

Entries and their measured Activity follow.
system: Mus musculus; test: Anticonvulsant activity in Mus musculus (mouse) assessed as protection against 6 Hz psychomotor-induced clonic seizures at 100 mg/kg, i.p. measured at 1 hr relative to control; assay type: functional; details: route intraperitoneal
# output: bare number, implied unit %

Cc1ccc(NC(=O)NN)cc1 = 50
Cc1ccc(NC(=O)NN=C2CCCCC2)cc1 = 50
NNC(=O)Nc1ccccc1Cl = 100
O=C(N/N=C/c1ccc(O)cc1)Nc1ccccc1Cl = 50

Pending molecule:
Tell me measured Activity for `C/C(=N\NC(=O)Nc1ccccc1Cl)c1ccc(Cl)cc1` please. 50

---

system: Mus musculus; assay: Neurotoxicity in Mus musculus (mouse) assessed as motor impairment at 100 mg/kg, ip measured at 4 hr by rotarod test relative to control; format: toxicity, organism-based; parameters: dose 100 mg/kg, route intraperitoneal; conditions: in vivo
ENDPOINT LABEL: Activity

Solved entries:
O=C(N/N=C/c1ccc(O)cc1)Nc1ccccc1Cl = Non-toxic
Cc1ccc(NC(=O)NN)cc1 = 50%
COc1ccc(/C=N/NC(=O)Nc2ccccc2Cl)cc1OC = Non-toxic
NNC(=O)Nc1ccccc1Cl = 25%
C/C(=N\NC(=O)Nc1ccccc1Cl)c1ccc(Cl)cc1 = Non-toxic
Cc1ccc(NC(=O)NN=C2CCCCC2)cc1 = Non-toxic

Pending compound:
System Mus musculus. Read-out Activity. Item `Cc1ccc(NC(=O)N/N=C/c2cccc(O)c2)cc1` . Report value. Non-toxic

---

system: Mus musculus; experiment: Neurotoxicity in Mus musculus (mouse) assessed as motor impairment at 30 to 300 mg/kg, ip measured at 0.5 hr by rotarod test; assay type: toxicity, organism-based; parameters: dose 30-300 mg/kg, route intraperitoneal; conditions: in vivo
ENDPOINT LABEL: Activity

C/C(=N\NC(=O)Nc1ccc(C)cc1)c1ccc(O)cc1O = Non-toxic
COc1ccc(/C=N/NC(=O)Nc2ccccc2Cl)cc1OC = Non-toxic
Cc1ccc(NC(=O)N/N=C/c2ccccc2Cl)cc1 = Non-toxic
COc1ccc(/C(C)=N/NC(=O)Nc2ccccc2Cl)cc1 = Non-toxic
COc1cc(/C=N/NC(=O)Nc2ccc(C)cc2)ccc1O = Non-toxic
C/C(=N\NC(=O)Nc1ccc(C)cc1)c1ccccc1O = Non-toxic
O=C(N/N=C/c1ccc(O)cc1)Nc1ccccc1Cl = Non-toxic
O=C(N/N=C/c1ccco1)Nc1ccccc1Cl = Non-toxic

System Mus musculus. Read-out Activity. Item `CC(=O)C/C(C)=N/NC(=O)Nc1ccc(C)cc1` . Report value. Non-toxic

System Mus musculus. Read-out Activity. Item `NNC(=O)Nc1ccccc1Cl` . Report value. Non-toxic

System Mus musculus. Read-out Activity. Item `Cc1ccc(NC(=O)NN)cc1` . Report value. Non-toxic

System Mus musculus. Read-out Activity. Item `O=C(NN=C1CCCC1)Nc1ccccc1Cl` . Report value. Non-toxic

System Mus musculus. Read-out Activity. Item `O=C(N/N=C/c1cccc(O)c1)Nc1ccccc1Cl` . Report value. Non-toxic
